# Assayed target: Trypsin (Homo sapiens, UniProt P07477+P07478+P35030)
# Experiment notes: In vitro activity against human trypsin.
# Type: protein assay
The entries below are paired with their reported Ki.

[
  {
    "Given smiles": "Cc1cc(C(=O)Nc2ccc(-c3ccccc3S(C)(=O)=O)cc2)n(-c2cccc(C(=N)N)c2)n1",
    "Ki [nM]": 13
  },
  {
    "Given smiles": "Cc1cc(C(=O)Nc2ncc(-c3ccccc3S(N)(=O)=O)cn2)n(-c2cccc(C(=N)N)c2)n1",
    "Ki [nM]": 150
  },
  {
    "Given smiles": "N=C(N)c1cccc(-n2nc(C(F)(F)F)cc2C(=O)Nc2ncc(-c3ccccc3S(N)(=O)=O)cn2)c1",
    "Ki [nM]": 20
  },
  {
    "Given smiles": "Cc1cc(C(=O)Nc2ccc(-c3ccccc3S(N)(=O)=O)cc2Cl)n(-c2cccc(C(=N)N)c2)n1",
    "Ki [nM]": 15
  },
  {
    "Given smiles": "CS(=O)(=O)c1ccccc1-c1ccc(NC(=O)c2cc(C(F)(F)F)nn2-c2cccc(C(=N)N)c2)cc1",
    "Ki [nM]": 4.3
  },
  {
    "Given smiles": "Cc1cc(C(=O)Nc2ccc(-c3ccccc3F)cc2)n(-c2cccc(C(=N)N)c2)n1",
    "Ki [nM]": 100
  },
  {
    "Given smiles": "NCc1cccc(-n2nc(C(F)(F)F)cc2C(=O)Nc2ccc(-c3ccccc3S(N)(=O)=O)cc2F)c1",
    "Ki [nM]": 53
  },
  {
    "Given smiles": "NCc1cccc(-n2nc(C(F)(F)F)cc2C(=O)Nc2ccc(-c3ccccc3S(N)(=O)=O)cc2)c1",
    "Ki [nM]": 120
  }
]

* * *

pKi: −log10 of the molar value.
Below are pKi values measured for Prothrombin (Homo sapiens).

[
  {
    "Given smiles": "Cc1cc(C(=O)Nc2ccc(-c3ccccc3S(C)(=O)=O)cc2)n(-c2cccc(C(=N)N)c2)n1",
    "Assayed target": "Prothrombin (Homo sapiens)",
    "pKi": 6.74
  },
  {
    "Given smiles": "CCCCc1cc(C(=O)Nc2ccc(-c3ccccc3S(N)(=O)=O)cc2)n(-c2cccc(C(=N)N)c2)n1.O=C(O)C(F)(F)F",
    "Assayed target": "Prothrombin (Homo sapiens)",
    "pKi": 6.52
  },
  {
    "Given smiles": "Cc1cc(C(=O)Nc2ccc(-c3ccccc3S(N)(=O)=O)cc2F)n(-c2cccc(CN)c2)n1",
    "Assayed target": "Prothrombin (Homo sapiens)",
    "pKi": 4.92
  },
  {
    "Given smiles": "Cc1cc(C(=O)Nc2ccc(-c3ccccc3F)cc2)n(-c2cccc(C(=N)N)c2)n1",
    "Assayed target": "Prothrombin (Homo sapiens)",
    "pKi": 6.35
  },
  {
    "Given smiles": "Cc1cc(C(=O)Nc2ccc(-c3ccccc3S(N)(=O)=O)cc2Br)n(-c2cccc(C(=N)N)c2)n1",
    "Assayed target": "Prothrombin (Homo sapiens)",
    "pKi": 6.70
  },
  {
    "Given smiles": "Cc1cc(C(=O)Nc2ccc(-c3ccccc3S(N)(=O)=O)cc2Cl)n(-c2cccc(C(=N)N)c2)n1",
    "Assayed target": "Prothrombin (Homo sapiens)",
    "pKi": 6.52
  },
  {
    "Given smiles": "CS(=O)(=O)c1ccccc1-c1ccc(NC(=O)c2cc(C(F)(F)F)nn2-c2cccc(CN)c2)cc1",
    "Assayed target": "Prothrombin (Homo sapiens)",
    "pKi": 5.24
  },
  {
    "Given smiles": "N=C(N)c1cccc(-n2cccc2C(=O)Nc2ccc(-c3ccccc3S(N)(=O)=O)cc2)c1",
    "Assayed target": "Prothrombin (Homo sapiens)",
    "pKi": 6.05
  }
]
